- measured-target: 4-hydroxy-tetrahydrodipicolinate reductase (VvDapB) (Vibrio vulnificus)
- Sequence (Q8DEM0 whole entry): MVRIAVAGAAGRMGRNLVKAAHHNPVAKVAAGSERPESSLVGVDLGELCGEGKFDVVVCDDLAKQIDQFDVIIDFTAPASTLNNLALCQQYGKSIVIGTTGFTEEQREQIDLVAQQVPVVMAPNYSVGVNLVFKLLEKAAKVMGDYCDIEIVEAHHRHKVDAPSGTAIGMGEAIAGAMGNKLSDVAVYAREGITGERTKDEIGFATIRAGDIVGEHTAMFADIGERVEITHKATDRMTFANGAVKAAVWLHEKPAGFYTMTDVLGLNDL
quantity-name: pKd
In simple prose, pKd is minus the logarithm base ten of a concentration in moles per litre.

Item: NC(=O)C1=CN([C@@H]2O[C@H](COP(=O)(O)OP(=O)(O)OC[C@H]3O[C@@H](n4cnc5c(N)ncnc54)[C@H](O)[C@@H]3O)[C@@H](O)[C@H]2O)C=CC1 | pKd: 5.41

----------
- measured-target: 4-hydroxy-tetrahydrodipicolinate reductase (MtDapB) (Mycobacterium tuberculosis, UniProt P9WP23)
- Sequence (P9WP23 whole entry): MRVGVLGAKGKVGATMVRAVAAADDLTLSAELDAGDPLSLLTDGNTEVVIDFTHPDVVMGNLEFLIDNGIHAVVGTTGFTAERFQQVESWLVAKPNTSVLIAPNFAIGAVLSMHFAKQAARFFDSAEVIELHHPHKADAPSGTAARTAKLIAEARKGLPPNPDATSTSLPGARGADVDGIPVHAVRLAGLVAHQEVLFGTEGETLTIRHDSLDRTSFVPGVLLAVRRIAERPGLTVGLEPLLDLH
quantity-name: pKd
Hey, just a heads up that pKd is the negative log base 10 of the concentration in molar.

// pKd value for NC(=O)C1=CN([C@@H]2O[C@H](COP(=O)(O)OP(=O)(O)OC[C@H]3O[C@@H](n4cnc5c(N)ncnc54)[C@H](O)[C@@H]3O)[C@@H](O)[C@H]2O)C=CC1 [NADH] : 5.44
